Recorded values, source ChEMBL document CHEMBL5291721.

# maps each entry to its AC50
study-system: Alpha-1A adrenergic receptor (Homo sapiens, UniProt P35348)
Sequence (P35348 whole entry): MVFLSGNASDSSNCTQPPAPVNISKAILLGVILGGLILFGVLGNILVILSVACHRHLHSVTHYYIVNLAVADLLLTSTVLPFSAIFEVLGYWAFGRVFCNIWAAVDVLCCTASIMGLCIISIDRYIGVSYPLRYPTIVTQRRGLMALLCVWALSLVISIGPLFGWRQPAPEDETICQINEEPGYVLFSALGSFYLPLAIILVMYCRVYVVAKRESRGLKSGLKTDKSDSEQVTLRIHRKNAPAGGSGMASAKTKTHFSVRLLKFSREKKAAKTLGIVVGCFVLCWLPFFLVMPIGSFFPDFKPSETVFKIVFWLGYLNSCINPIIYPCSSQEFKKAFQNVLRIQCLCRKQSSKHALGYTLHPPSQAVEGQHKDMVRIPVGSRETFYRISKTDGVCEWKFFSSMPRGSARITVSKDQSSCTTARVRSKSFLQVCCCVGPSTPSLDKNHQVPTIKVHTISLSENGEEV
Format: functional, cell-based

compound	study-system	AC50
C=CC[N+]1([C@H]2C[C@H]3[C@@H]4CC[C@H]5C[C@H](O)[C@@H](N6CCOCC6)C[C@]5(C)[C@H]4CC[C@]3(C)[C@H]2OC(C)=O)CCCC1 [ROCURONIUM]	Alpha-1A adrenergic receptor (Homo sapiens, UniProt P35348)	> 30 µM
C[C@@H]1C[C@H]2[C@@H]3C[C@H](F)C4=CC(=O)C=C[C@]4(C)[C@@]3(F)[C@@H](O)C[C@]2(C)[C@@]1(OC(=O)c1ccco1)C(=O)SCF [FLUTICASONE FUROATE]	Alpha-1A adrenergic receptor (Homo sapiens, UniProt P35348)	> 30 µM
CC(CN1c2ccccc2Sc2ccccc21)N(C)C (stereo not drawn) [PROMETHAZINE]	Alpha-1A adrenergic receptor (Homo sapiens, UniProt P35348)	> 30 µM

###

study-system: 5-hydroxytryptamine receptor 2B (Homo sapiens); further: assay procedure not described here
Sequence (P41595 whole entry): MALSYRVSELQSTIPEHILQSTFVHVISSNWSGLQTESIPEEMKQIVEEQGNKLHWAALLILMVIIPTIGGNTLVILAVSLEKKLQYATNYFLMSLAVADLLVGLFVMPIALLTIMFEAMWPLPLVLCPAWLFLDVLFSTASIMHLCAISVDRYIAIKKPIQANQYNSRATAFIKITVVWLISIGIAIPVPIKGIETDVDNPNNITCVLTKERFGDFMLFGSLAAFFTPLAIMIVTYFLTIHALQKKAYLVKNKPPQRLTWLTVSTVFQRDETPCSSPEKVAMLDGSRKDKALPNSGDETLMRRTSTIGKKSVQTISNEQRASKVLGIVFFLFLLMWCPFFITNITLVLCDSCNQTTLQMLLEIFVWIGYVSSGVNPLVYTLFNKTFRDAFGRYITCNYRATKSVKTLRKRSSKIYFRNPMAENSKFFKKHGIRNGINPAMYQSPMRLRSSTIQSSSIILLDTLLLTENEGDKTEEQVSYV
Format: functional, cell-based
# maps each entry to its AC50
readout-kind: AC50

> print(dat)
                                    compound  obs.value
 1  CC(C)(O/N=C(\C(=O)N[C@@H]1C(=O)N2C(C(=O)[O-])=C(C[n+]3ccccc3)CS[C@H]12)c1csc(N)n1)C(=O)O   > 300 µM
 2  O=C(CCCN1CCC(O)(c2ccc(Br)cc2)CC1)c1ccc(F)cc1    > 30 µM
 3  CC(O)(CS(=O)(=O)c1ccc(F)cc1)C(=O)Nc1ccc(C#N)c(C(F)(F)F)c1 (stereo not drawn) [BICALUTAMIDE]    > 10 µM
 4  O=C1OC(OC(=O)c2cccnc2Nc2cccc(C(F)(F)F)c2)c2ccccc21 (stereo not drawn) [TALNIFLUMATE]    > 30 µM
 5  C[C@]12C=CC(=O)C=C1CC[C@@H]1[C@@H]2CC[C@]2(C)OC(=O)CC[C@@H]12    > 30 µM
 6   CNC[C@H](O)c1ccc(O)c(O)c1 [EPINEPHRINE]    > 30 µM
 7                       CCOC(=O)c1ccc(N)cc1    > 10 µM
 8       Cc1cc(C)nc(NS(=O)(=O)c2ccc(N)cc2)n1    > 10 µM
 9        C=CCN1CCc2nc(N)sc2CC1 [TALIPEXOLE]    > 30 µM
10  O=C(c1cc(Cc2n[nH]c(=O)c3ccccc23)ccc1F)N1CCN(C(=O)C2CC2)CC1    > 10 µM
11  CCC[C@@H]1C[C@@H](C(=O)N[C@@H]([C@H]2O[C@H](SC)[C@H](O)[C@@H](O)[C@H]2O)[C@@H](C)O)N(C)C1    > 30 µM
12  CN(CCOc1ccc(CC2SC(=O)NC2=O)cc1)c1ccccn1 (stereo not drawn)    > 30 µM
13  CCN1CCCC1CNC(=O)c1cc(S(=O)(=O)CC)ccc1OC (stereo not drawn) [SULTOPRIDE]    > 30 µM
14  C=CC[N+]1([C@H]2C[C@H]3[C@@H]4CC[C@H]5C[C@H](O)[C@@H](N6CCOCC6)C[C@]5(C)[C@H]4CC[C@]3(C)[C@H]2OC(C)=O)CCCC1    > 30 µM
15  CCOC(=O)c1c(CSc2ccccc2)n(C)c2cc(Br)c(O)c(CN(C)C)c12    > 30 µM
16  COc1ccc([C@@H]2CC(=O)c3c(O)cc(O)cc3O2)cc1O    > 10 µM
17   CCCC(C)(COC(N)=O)COC(N)=O [MEPROBAMATE]    > 10 µM
18            CCCCOc1ccc(C(=O)CCN2CCCCC2)cc1    > 10 µM

###

Parameter 'readout' = AC50; parameter 'system' = Alpha-1A adrenergic receptor (Homo sapiens, UniProt P35348).
readout-kind: AC50

> print(dat)
                                    compound                              study.system  obs.value
 1  CC(C)[C@H](N)C(=O)OCCOCn1cnc2c(=O)[nH]c(N)nc21 [VALACYCLOVIR]  Alpha-1A adrenergic receptor (Homo sapiens, UniProt P35348)    > 10 µM
 2  CCc1nc(N)nc(N)c1-c1ccc(Cl)cc1 [PYRIMETHAMINE]  Alpha-1A adrenergic receptor (Homo sapiens, UniProt P35348)       4 µM
 3  O=C(O)c1ccc(NC(=O)[C@H](Cc2ccc(O)cc2)NC(=O)c2ccccc2)cc1 [BENTIROMIDE]  Alpha-1A adrenergic receptor (Homo sapiens, UniProt P35348)    > 10 µM
 4  CNC(=C[N+](=O)[O-])NCCSCc1csc(CN(C)C)n1 [NIZATIDINE]  Alpha-1A adrenergic receptor (Homo sapiens, UniProt P35348)    > 10 µM
 5   CCCC(C)(COC(N)=O)COC(N)=O [MEPROBAMATE]  Alpha-1A adrenergic receptor (Homo sapiens, UniProt P35348)    > 30 µM
 6  O=C(O)CCNC(=O)c1ccc(/N=N/c2ccc(O)c(C(=O)O)c2)cc1 [BALSALAZIDE]  Alpha-1A adrenergic receptor (Homo sapiens, UniProt P35348)    > 30 µM
 7  CCCc1nc2c(C)cc(-c3nc4ccccc4n3C)cc2n1Cc1ccc(-c2ccccc2C(=O)O)cc1  Alpha-1A adrenergic receptor (Homo sapiens, UniProt P35348)    > 10 µM
 8  CC1=C(/C=C/C(C)=C/C=C/C(C)=C/CO)C(C)(C)CCC1 [RETINOL]  Alpha-1A adrenergic receptor (Homo sapiens, UniProt P35348)    > 10 µM
 9  CC[C@@H](CO)NC(=O)[C@@H]1C=C2c3cccc4c3c(cn4C)C[C@H]2N(C)C1 [METHYSERGIDE]  Alpha-1A adrenergic receptor (Homo sapiens, UniProt P35348)    > 10 µM
10  CC(c1cc2ccccc2s1)N(O)C(N)=O (centres undefined) [ZILEUTON]  Alpha-1A adrenergic receptor (Homo sapiens, UniProt P35348)    > 10 µM
11        C=CCN1CCc2nc(N)sc2CC1 [TALIPEXOLE]  Alpha-1A adrenergic receptor (Homo sapiens, UniProt P35348)    > 30 µM
12  Cc1ccc(C)c(OCCCC(C)(C)C(=O)O)c1 [GEMFIBROZIL]  Alpha-1A adrenergic receptor (Homo sapiens, UniProt P35348)    13.7 µM
13  CC(C)(Oc1ccc(CCNC(=O)c2ccc(Cl)cc2)cc1)C(=O)O [BEZAFIBRATE]  Alpha-1A adrenergic receptor (Homo sapiens, UniProt P35348)    > 10 µM
14  CCCc1cc(=O)[nH]c(=S)[nH]1 [PROPYLTHIOURACIL]  Alpha-1A adrenergic receptor (Homo sapiens, UniProt P35348)    > 10 µM
15  CCCN1CC(NS(=O)(=O)N(CC)CC)CC2Cc3c(O)cccc3CC21 (centres undefined) [QUINAGOLIDE]  Alpha-1A adrenergic receptor (Homo sapiens, UniProt P35348)      29 µM
16  COc1cc(N)c(Cl)cc1C(=O)NC1CCN(CCCOc2ccc(F)cc2)CC1OC (centres undefined) [CISAPRIDE]  Alpha-1A adrenergic receptor (Homo sapiens, UniProt P35348)   0.593 µM
17  C[C@@H]1C[C@H]2[C@@H]3CCC4=CC(=O)C=C[C@]4(C)[C@@]3(F)[C@@H](O)C[C@]2(C)[C@@]1(O)C(=O)CO [DEXAMETHASONE]  Alpha-1A adrenergic receptor (Homo sapiens, UniProt P35348)    > 30 µM
18          CCOC(=O)c1ccc(N)cc1 [BENZOCAINE]  Alpha-1A adrenergic receptor (Homo sapiens, UniProt P35348)    > 10 µM
19  CC(O)(CS(=O)(=O)c1ccc(F)cc1)C(=O)Nc1ccc(C#N)c(C(F)(F)F)c1 (centres undefined) [BICALUTAMIDE]  Alpha-1A adrenergic receptor (Homo sapiens, UniProt P35348)    > 10 µM
